Data origin, for the record: patent US11883383B2

method-description: Salt/co-crystal screening: 38 acids, eight solvent systems, solids analysed by XRPD
Format: physicochemical
test-parameters: Ethyl acetate/Hexane (1:2, v/v); acid/freebase charge 1:1 unless label says 2:1; stirred at RT, else 5° C. slurry, anti-solvent addition or evaporation (footnote marks)
parameter-measured: Solid obtained in salt screening (XRPD), solvent B Ethyl acetate/Hexane (1:2, v/v)

Example entries begin here.
> print(dat)
                                   molecule  result
1  O=C(O)/C=C/c1ccccc1 [trans Cinnamic acid]     gel
2                           C[C@H](O)C(=O)O    gel*
3                    O=C(O)[C@H](O)c1ccccc1    gel*
4                               CCCCCC(=O)O    gel*
5                     CCCCCCCCCCCCCCCC(=O)O    gel*

-- ask In one line, give reported Solid obtained in salt screening (XRPD), solvent B Ethyl acetate/Hexane (1:2, v/v) of the entry `O=S(=O)(O)O` .
-- reply gel

-- ask Answer with the recorded Solid obtained in salt screening (XRPD), solvent B Ethyl acetate/Hexane (1:2, v/v) of `O=C(O)[C@H](O)[C@@H](O)[C@H](O)[C@H](O)CO` only.
-- reply gel*

-- ask Provide Solid obtained in salt screening (XRPD), solvent B Ethyl acetate/Hexane (1:2, v/v) value for the following molecule: `O=C(O)c1ccccc1`
-- reply gel*

-- ask Give the measured Solid obtained in salt screening (XRPD), solvent B Ethyl acetate/Hexane (1:2, v/v) for `O=C(O)CCCC(=O)O`
-- reply amorphous*

-- ask Read off the recorded Solid obtained in salt screening (XRPD), solvent B Ethyl acetate/Hexane (1:2, v/v) for `O=C(O)CCCCC(=O)O`
-- reply amorphous*

-- ask Return Solid obtained in salt screening (XRPD), solvent B Ethyl acetate/Hexane (1:2, v/v) for the following molecule: O=C(O)c1ccc2ccccc2c1O [1-hydroxy-2-naphthoic acid]
-- reply gel*

-- ask Specify measured Solid obtained in salt screening (XRPD), solvent B Ethyl acetate/Hexane (1:2, v/v) for `O=C(O)c1ccccc1O` .
-- reply amorphous*

-- ask // fetch Solid obtained in salt screening (XRPD), solvent B Ethyl acetate/Hexane (1:2, v/v) given entry `O=C(O)CCC(=O)O`
-- reply amorphous*

-- ask Give reported Solid obtained in salt screening (XRPD), solvent B Ethyl acetate/Hexane (1:2, v/v) value for `O=C(O)CC(=O)O`
-- reply amorphous*

-- ask Answer with reported Solid obtained in salt screening (XRPD), solvent B Ethyl acetate/Hexane (1:2, v/v) of `COc1cc(C=O)ccc1O`
-- reply gel*
